- Tested on: Alternaria alternata (A. alternata) CCM F-128
- EXPERIMENTAL_DETAILS: Growth of filamentous fungi, macrodilution method on solidified PDA (colony diameter)
- Type: cell-based
- RUN_CONDITIONS: Alternaria alternata; Filamentous fungi; solidified potato-dextrose growth medium; read-out: IC50 A. alternata
TEST_READOUT: IC50

Prompt line: Could you share which IC50 value was measured for O=C(O)c1ccccn1 ?
Response line: > 500 µM

Prompt line: Could you share which IC50 value was measured for O=C(O)c1cc(Cl)cc(C(=O)O)n1 ?
Response line: > 500 µM

Prompt line: Could you share which IC50 value was measured for O=C(O)c1cc(O)cc(C(=O)O)n1 ?
Response line: > 500 µM
